Test system: UACC-62 melanoma
Experiment Description: NCI tumour cell line growth inhibition, 48 h; in the data active = GI50 below about 0.43 µM; inactive = the rest
Entry note: the call must match one of active, inactive

Example cases with answers are listed next.
1. COc1cc2c(cc1C)NC(=O)/C2=C/c1c(C)nc2sc(C)cn12    inactive
2. C(#Cc1ccccc1C#Cc1ccccn1)c1ccc(OCCCCCCOc2ccc(C#Cc3ccccc3C#Cc3ccccn3)cc2)cc1    active
3. COc1ccc(OC)c2c3c(ncc12)-c1cc2c(cc1C3)OCO2    inactive

Next up:
Hi team, can someone confirm the assay call for "O=CNc1ccc2c(c1)Cc1cc([N+](=O)[O-])ccc1-2" ?
inactive

---

System: COLO 205 colon
Experiment Description: NCI tumour cell line growth inhibition, 48 h
# TGI per entry

1. O=C(O)CCCC#CCCCC(=O)O    > 100 µM

Any idea what TGI was measured for "Cc1ccccc1Nc1cn(CCOc2ccccc2)c(=O)n(CCOc2ccccc2)c1=O" ?
> 100 µM

And for "COc1cc2c(cc1OC)C(=O)/C(=C/c1ccccc1)C2" ?
> 100 µM

And for "O=C(Nc1ccc(F)cc1)c1cc2ccc(O)cc2oc1=Nc1cccc(F)c1" ?
> 100 µM

And for "N#Cc1ccccc1/C=N/O" ?
> 74.9 µM

And for "O=c1[nH]c(C2CCCCC2)nc2cc(Cl)ccc12" ?
> 100 µM

And for "CC(C)[C@H](NC(=O)[C@@H](O)[C@H](N)Cc1ccccc1)C(=O)N[C@@H](Cc1ccccc1)C(=O)O" ?
> 100 µM

And for COc1ccc(C2SC(C)C(=O)N2NC(=O)C(O)c2ccccc2)cc1 (stereo unspecified) ?
> 100 µM

---

Tested on: A549 NSCLC
Experiment Description: NCI tumour cell line growth inhibition, 48 h
Measure: TGI

These recorded examples may help you get a feel for the data.
1) CC(C)C(/C=C/c1ccc(Cl)cc1)=N\NC(=S)NN    > 100 µM
2) COc1cc(CNC(=O)CCCCCCCCCCSSCCCCCCCCCCC(=O)NCc2ccc(O)c(OC)c2)ccc1O    > 10 µM
3) Cc1c(C)c(C)c(CSC(=N)N)c(C)c1C    30.9 µM

Any idea what TGI was measured for "O=C(NC1CCN(Cc2ccccc2)CC1)c1ccccc1I" ?
> 100 µM

And for CC(C)(C)C1=NN=C2c3ccccc3C(=O)C21 (stereo not drawn) ?
> 100 µM

And for "C(=N/Nc1ccccn1)/c1cccnc1" ?
> 100 µM

And for CCCN1CN(C(C(=O)N[C@@H]2C(=O)N3C(C(=O)O)=C(C)CSC23)c2ccccc2)CSC1=S (stereo partly drawn) ?
> 100 µM

And for COC(=O)CCC(=O)C(C#N)c1ccc(Cl)cc1Cl (stereo not drawn) ?
> 100 µM

---

System: M14 melanoma
Experiment Description: NCI tumour cell line growth inhibition, 48 h
Measure: TGI

These recorded examples may help you get a feel for the data.
1) C#CCOc1c(OC)cc(C(=O)/C(C)=C/c2cccc(N=[N+]=[N-])c2)cc1OC    > 100 µM
2) CC(C)C(/C=C/c1ccc(Cl)cc1)=N\NC(=S)NN    > 100 µM
3) Cc1nn(C(=O)c2ccncc2)c2c1C(c1ccccc1O)SC(N)=N2 (stereo unspecified)    > 10 µM

Any idea what TGI was measured for "c1ccc(-c2cc(-c3cc(-c4ccccc4)no3)on2)cc1" ?
> 100 µM

And for "CCC(/C=C/c1ccccc1)=N\N=C(\C=C\c1ccccc1)CC" ?
> 100 µM

And for "N#Cc1ccccc1/C=N/O" ?
> 100 µM

---

Tested on: T-47D breast
Experiment Description: NCI tumour cell line growth inhibition, 48 h
Measure: TGI

These recorded examples may help you get a feel for the data.
1. COc1cc(CNC(=O)CCCCCCCCCCSSCCCCCCCCCCC(=O)NCc2ccc(O)c(OC)c2)ccc1O    > 10 µM
2. CN(C)CC1CN(C(=O)Nc2ccccc2)C(=N)O1 (centres undefined)    > 100 µM
3. Cc1ccc(C(=O)Nc2ccc(CP(=O)(O)O)cc2)cc1NC(=O)Nc1cc(C(=O)Nc2ccc(CP(=O)(O)O)cc2)ccc1C    > 100 µM

# input for lookup
Any idea what TGI was measured for CCC1CCN=C(Cn2cc(C)c(=O)[nH]c2=O)N1 (centres undefined) ?
> 100 µM

---

Test system: LOX IMVI melanoma
Experiment Description: NCI tumour cell line growth inhibition, 48 h
Measure: TGI

These recorded examples may help you get a feel for the data.
1) O=C1[C@H](c2ccccc2)C2c3ccccc3CCN12 (stereo not given in full)    > 100 µM
2) CSc1ccc2c(c1)C(=O)c1c-2n(CCCN=[N+]=[N-])c(=O)c2cc([N+](=O)[O-])ccc12    > 100 µM
3) CC(C)(C)OC(=O)N1C(=O)OC[C@@H]2C=C[C@@H]21    > 100 µM
4) C[C@]12CCC(=O)C=C1CC[C@@H]1[C@@H]2CC[C@]2(C)C(=O)/C(=C\c3ccccc3)C[C@@H]12    > 51.5 µM

Any idea what TGI was measured for O=C1CC23CC(=O)CC2(C1)c1ccccc1C3=O (stereo not given) ?
> 100 µM

---

# TGI per entry
Test system: SR leukemia
Experiment Description: NCI tumour cell line growth inhibition, 48 h

These recorded examples may help you get a feel for the data.
1. O=[N+]([O-])c1ccc(C2N3CCCCC3[C@@H]3c4[nH]c5ccccc5c4CCN23)cc1 (stereo partly specified)    > 100 µM
2. Cc1ccc(C2CC(c3cccc(Nc4ccncc4)c3)=NN2c2ccc(Cl)cc2)cc1 (stereo unspecified)    3.52 µM
3. COC(=O)c1cc(O)ccc1NC(=O)c1ccc(O)cc1    > 100 µM
4. O=C(Cc1nc2ccccc2s1)NC12CC3CC(CC(C3)C1)C2    > 100 µM
5. N#C/C(N)=C(\C#N)N=CNc1ccccc1N    > 100 µM

# input for lookup
Enter reported TGI observed with SR leukemia for COc1cc(C2c3cc4c(cc3OC(O)C2C)OCO4)cc(OC)c1O (stereo unspecified)
> 100 µM

---

Test system: IGROV1 ovarian
Experiment Description: NCI tumour cell line growth inhibition, 48 h
Where a SMILES comes first, the peptide text is derived from it. Bridges are numbered along the chain shown (N, C = ends). Roman numbers before positions name the chains, in order. [ ]: non-standard residue; d: D form. The star is where a group is joined. Heptadecanoyl = CCCCCCCCCCCCCCCCC(=O)*; Phg = N[CH](C(=O)O)c1ccccc1
Measure: TGI

These recorded examples may help you get a feel for the data.
1. CC(C)(C)C1=NN=C2c3ccccc3C(=O)C21 (stereo not drawn)    > 100 µM
2. O=C(Nc1cccc2ccccc12)c1cc2ccccc2cc1O    7.27 µM
3. Cc1ccc(C2CC(c3cccc(Nc4ccncc4)c3)=NN2c2ccc(Cl)cc2)cc1 (stereo not drawn)    3.24 µM

Enter reported TGI observed with IGROV1 ovarian for CCCCCCCCCCCCCCCCC(=O)N1CCCC1C(=O)NCC(=O)NC(C(=O)N1CCCC1C(=O)NC(CO)C(=O)NC(Cc1ccc(O)cc1)C(=O)NC(CCCCNC(=O)C1CCCN1C(=O)C(CCCCN)NC(=O)C(CCCCN)NC(=O)C(CCCCN)NC(=O)C(CCCNC(=N)N)NC(=O)C(CCCCN)NC(=O)C(N)C(C)C)C(=O)NC(CC(C)C)C(=O)NC(CCCNC(=N)N)C(=O)N1CCCC1C(=O)NCC(N)=O)c1ccccc1 (stereo not drawn) (I: Heptadecanoyl-PG[Phg]PSYKLRPG-NH2 / II: H-VKRKKKP; amide I:7-II:C; configuration not given here)
75.7 µM

And for "COc1ccc2c(c1)c(=O)oc1cc(OC/C(=N\O)c3ccc(F)cc3)ccc12" ?
50.5 µM

And for "CCCCC/C(=N\c1nc[nH]c1C(N)=O)OCC" ?
> 100 µM

And for "N=c1c2c(=O)n3c(nc2nc2sc4ccc(Cl)cc4n12)-c1ccccc1Sc1ccccc1-3" ?
18.3 µM

And for "CC(C)(Cc1ccccc1)Cc1cc(O)ccc1O" ?
> 100 µM

And for "CCOC(=O)c1cc(Cl)ccc1OC(N)=O" ?
> 100 µM

And for "COC(=O)c1c/c(=N\NC(=O)CC(=O)Nc2ccc(C)cc2)c2ccccc2o1" ?
> 100 µM

And for "C#CCOc1c(OC)cc(C(=O)/C(C)=C/c2cccc(N=[N+]=[N-])c2)cc1OC" ?
> 100 µM

And for "O=c1[nH][nH]c(=S)c(=O)[nH]1" ?
> 100 µM

And for "COc1ccc2nc(-c3ccc(O)cc3)cn2c1" ?
> 100 µM

And for "COc1ccc2c(c1)CC[C@@H]1[C@@H]2CC[C@]2(C)c3c(cc(C(=O)c4ccccc4)c4sccc34)C[C@@H]12" ?
> 100 µM

And for "Cc1ccc(S(=O)(=O)N2C/C(=C\c3cc(F)cc(F)c3)C(=O)/C(=C/c3cc(F)cc(F)c3)C2)cc1" ?
1.4 µM

And for "Cc1cccc2c(=O)c3c(sc12)c(NCCN)nc1ccccc13" ?
1.26 µM

And for "CC(C)=CCC/C(C)=C/CC/C(C)=C/CC/C(C=O)=C/CC/C(C)=C\CC/C(C)=C/CC/C(C)=C/CC/C(C)=C/CC1=CC(=O)C=CC1=O" ?
> 100 µM

And for "CCCC[Si](CCCC)(CCCC)O[C@@H](/C=C/C(=O)OCC)[C@H](Cc1ccccc1)O[Si](CCCC)(CCCC)CCCC" ?
> 100 µM

And for "C#Cc1ccc(-n2c(/C=C/c3ccc4ccccc4n3)nc3ncccc3c2=O)cc1" ?
1.58 µM

And for "Cc1ccc(OCCn2cc(Nc3ccccc3)c(=O)[nH]c2=O)cc1" ?
> 100 µM

And for O=C1CCC2(c3ccc(F)cc3)Nc3ncncc3N12 (stereo not drawn) ?
> 10 µM
